# Test system: OVCAR-8
# assay-text: Growth inhibition of human OVCAR8 cells after 48 hrs by SRB assay
# Format: functional
# test-conditions: OVCAR-8, 48 h, read-out: pTGI (converted)
Below, each entry is listed alongside its reported TGI.

Example entries begin here.
| molecule | TGI |
| --- | --- |
| COc1ccc(/C=C\c2cc(OC)c(OC)c(OC)c2)cc1O [COMBRETASTATIN A4] | 39.8 µM |
| COc1cc(C2=NNC(c3ccc(N(C)C)cc3)C2)cc(OC)c1OC (centres undefined) | > 100 µM |
| COc1cc(C2CC(c3cccc(O)c3)=NN2C(C)=O)cc(OC)c1OC (centres undefined) | > 100 µM |

Now examine the next entry.
**Query** Item under review: COc1cc(C2CC(c3ccc(N(C)C)cc3)=NN2C(C)=O)cc(OC)c1OC (centres undefined) . Reported TGI?
**Result** > 100 µM

----------
# Test system: NCI/ADR-RES
# assay-text: Growth inhibition of human NCI/ADR-RES cells after 48 hrs by SRB assay
# Assay type: functional
Below, each entry is listed alongside its reported GI50.

| molecule | study-system | GI50 |
| --- | --- | --- |
| COc1ccc(/C=C\c2cc(OC)c(OC)c(OC)c2)cc1O | NCI/ADR-RES | 0.0631 µM |
| CCN(CC)c1ccc(C2CC(c3cc(OC)c(OC)c(OC)c3)=NN2)cc1 (centres undefined) | NCI/ADR-RES | 0.501 µM |
| COc1cc(C2=NNC(c3ccc(N(C)C)cc3)C2)cc(OC)c1OC (centres undefined) | NCI/ADR-RES | 2 µM |

Now examine the next entry.
**Query** Write down the reported GI50 of COc1cc(C2CC(c3cccc(O)c3)=NN2C(C)=O)cc(OC)c1OC (centres undefined) , test system: NCI/ADR-RES.
**Result** 1.26 µM

----------
# System: HCT-116
# assay-text: Growth inhibition of human HCT116 cells after 48 hrs by SRB assay
# Format: functional
# test-conditions: HCT-116, 48 h, read-out: pTGI (converted)
quantity-kind: log10 TGI (log10 of the value in µM)
Hello, just confirming the data are log10 of TGI with units of µM.

**Query** Write down the reported log10 TGI of CCN(CC)c1ccc(C2CC(c3cc(OC)c(OC)c(OC)c3)=NN2)cc1 (centres undefined) , test system: HCT-116.
**Result** 0.00

**Query** Write down the reported log10 TGI of COc1cc(C2CC(c3ccc(N(C)C)cc3)=NN2C(C)=O)cc(OC)c1OC (centres undefined) , test system: HCT-116.
**Result** 1.30

**Query** Write down the reported log10 TGI of COc1cc(C2=NN(C(C)=O)C(c3cc(OC)c(OC)c(OC)c3)C2)ccc1O (centres undefined) , test system: HCT-116.
**Result** 1.70

**Query** Write down the reported log10 TGI of COc1cc(C2=NNC(c3ccc(N(C)C)cc3)C2)cc(OC)c1OC (centres undefined) , test system: HCT-116.
**Result** 1.30

**Query** Write down the reported log10 TGI of CCN(CC)c1ccc(C2=NN(C(C)=O)C(c3cc(OC)c(OC)c(OC)c3)C2)cc1 (centres undefined) , test system: HCT-116.
**Result** 1.10

**Query** Write down the reported log10 TGI of COc1ccc(/C=C\c2cc(OC)c(OC)c(OC)c2)cc1O , test system: HCT-116.
**Result** -0.70

----------
# System: SNB-75
# assay-text: Growth inhibition of human SNB75 cells after 48 hrs by SRB assay
# Format: functional
# test-conditions: SNB-75, 48 h, read-out: pTGI (converted)
quantity-kind: TGI

| molecule | reported-measurement |
| --- | --- |
| COc1cc(C2CC(c3ccc(N(C)C)cc3)=NN2C(C)=O)cc(OC)c1OC (centres undefined) | > 100 µM |

**Query** Item under review: COc1cc(C2CC(c3cccc(Br)c3)=NN2C(C)=O)cc(OC)c1OC (centres undefined) . Reported TGI?
**Result** > 100 µM

**Query** Item under review: COc1cc(C2=NN(C(C)=O)C(c3cc(OC)c(OC)c(OC)c3)C2)ccc1O (centres undefined) . Reported TGI?
**Result** > 100 µM

**Query** Item under review: COc1cc(C2=NNC(c3ccc(N(C)C)cc3)C2)cc(OC)c1OC (centres undefined) . Reported TGI?
**Result** > 100 µM

----------
# Test system: SK-MEL-5
# assay-text: Growth inhibition of human SK-MEL-5 cells after 48 hrs by SRB assay
# Format: functional
# test-conditions: SK-MEL-5, 48 h, read-out: pTGI (converted)
Below, each entry is listed alongside its reported TGI.
Number plus unit, in that order.

Example entries begin here.
| compound | TGI |
| --- | --- |
| COc1ccc(/C=C\c2cc(OC)c(OC)c(OC)c2)cc1O | 0.01 µM |
| COc1ccc(C2CC(c3cc(OC)c(OC)c(OC)c3)=NN2)cc1 (stereo unspecified) | 25.1 µM |
| COc1cc(C2CC(c3cccc(O)c3)=NN2C(C)=O)cc(OC)c1OC (stereo unspecified) | 5.01 µM |
| COc1cc(C2CC(c3ccc(N(C)C)cc3)=NN2C(C)=O)cc(OC)c1OC (stereo unspecified) | 12.6 µM |

**Query** Item under review: COc1cc(C2=NNC(c3ccc(N(C)C)cc3)C2)cc(OC)c1OC (stereo unspecified) . Reported TGI?
**Result** 6.31 µM

**Query** Item under review: CCN(CC)c1ccc(C2=NN(C(C)=O)C(c3cc(OC)c(OC)c(OC)c3)C2)cc1 (stereo unspecified) . Reported TGI?
**Result** 3.98 µM

----------
Below, each entry is listed alongside its reported TGI.
# System: OVCAR-8
# assay-text: Growth inhibition of human OVCAR8 cells after 48 hrs by SRB assay
# Assay type: functional
# test-conditions: OVCAR-8, 48 h, read-out: pTGI (converted)
Output spec: scalar in µM, unitless text.

| compound | unit-descriptor | TGI |
| --- | --- | --- |
| CCN(CC)c1ccc(C2CC(c3cc(OC)c(OC)c(OC)c3)=NN2)cc1 (stereo not given) | µM | 7.94 |

Now examine the next entry.
**Query** Item under review: CCN(CC)c1ccc(C2=NN(C(C)=O)C(c3cc(OC)c(OC)c(OC)c3)C2)cc1 (stereo not given) . Reported TGI?
**Result** 5.01

----------
Below, each entry is listed alongside its reported TGI.
# Tested on: HCT-116
# assay-text: Growth inhibition of human HCT116 cells after 48 hrs by SRB assay
# Assay type: functional
# test-conditions: HCT-116, 48 h, read-out: pTGI (converted)

| compound | study-system | reported-measurement |
| --- | --- | --- |
| COc1cc(C2CC(c3cccc(O)c3)=NN2C(C)=O)cc(OC)c1OC (stereo not drawn) | HCT-116 | > 100 µM |

**Query** Write down the reported TGI of COc1cc(C2CC(c3cccc(Br)c3)=NN2C(C)=O)cc(OC)c1OC (stereo not drawn) , test system: HCT-116.
**Result** > 100 µM

**Query** Write down the reported TGI of COc1ccc(C2CC(c3cc(OC)c(OC)c(OC)c3)=NN2)cc1 (stereo not drawn) , test system: HCT-116.
**Result** > 100 µM

----------
# Tested on: OVCAR-8
# assay-text: Growth inhibition of human OVCAR8 cells after 48 hrs by SRB assay
# Assay type: functional
# test-conditions: OVCAR-8, 48 h, read-out: pTGI (converted)
quantity-kind: TGI

Example entries begin here.
| molecule | reported-measurement |
| --- | --- |
| COc1cc(C2=NN(C(C)=O)C(c3cc(OC)c(OC)c(OC)c3)C2)ccc1O (stereo not drawn) | > 100 µM |
| COc1ccc(C2CC(c3cc(OC)c(OC)c(OC)c3)=NN2)cc1 (stereo not drawn) | > 100 µM |

Now examine the next entry.
**Query** Item under review: COc1cc(C2CC(c3cccc(Br)c3)=NN2C(C)=O)cc(OC)c1OC (stereo not drawn) . Reported TGI?
**Result** > 100 µM
